System: α-PVP antibody
Assay: α-PVP/MDPV ELISA kit validation assay (Example 11)
Assay type: binding
Conditions: standard concentration which produced 50% B/B0 in that run; unit not given; Table 11; in ng/mL
Structures can show the parent of a compound that is named as a salt.
PARAMETER: Reactant IC50
Form rule: numeric answer, no unit written next to it.

Recorded results for 5 compounds are shown here.
CCC(C(=O)c1ccc2c(c1)OCO2)N1CCCC1 (centres unmarked) : 1.044
CC(C(=O)c1ccc2c(c1)OCO2)N1CCCC1 (centres unmarked) : 17.727
CC(C(=O)c1ccccc1)N1CCCC1 (centres unmarked) : 18.744
CCCC(C(=O)c1ccc2c(c1)OCO2)N1CCCC1 (centres unmarked) : 0.164
CCCC(C(=O)c1cccs1)N1CCCC1 (stereo not drawn) [α-Pyrrolidinopentiothiophenone HCl, α-Pyrrolidinopentiothiophenone] : 0.246

Find the recorded Reactant IC50 belonging to CCCC(C(=O)c1ccccc1)N1CCCC1 (centres unmarked) and report it.
0.153

Find the recorded Reactant IC50 belonging to CCCC(C(=O)c1ccc(C)cc1)N1CCCC1 (centres unmarked) and report it.
0.122

Find the recorded Reactant IC50 belonging to CCCC(C(=O)c1ccc2ccccc2c1)N1CCCC1 (centres unmarked) and report it.
0.218
